Assign growth to each entry below.
Tested on: U251 CNS
measurement description: NCI-60 one-dose screen, 48 h (100 = growth as untreated, 0 = no growth, -100 = all killed)
condition label: 10 µM unless noted
About 83,000 compounds went through this panel and 20% of them were active in at least one assay; those are over-represented in the sample as a whole.
Numbers only, in %.

| smiles notation | assayed target | units of measure | recorded measurement |
| --- | --- | --- | --- |
| COC(=O)/C(CCC=C(C)C)=C1\[C@@H](OC(C)=O)C[C@@]2(C)[C@H]1C[C@@H](O)[C@H]1[C@@]3(C)CC[C@H](NCCO)[C@@H](C)[C@@H]3CC[C@@]12C | U251 CNS | % | 103 |
| Cc1ccc(Nc2nc(N)c3ccccc3n2)cc1Cl | U251 CNS | % | 61.8 |
| FC(F)(F)c1cccc(Nc2nc3ccccc3nc2Nc2cccc(C(F)(F)F)c2)c1 | U251 CNS | % | -34 |
| O=C(COc1cc(O)c2c(=O)cc(-c3ccccc3)oc2c1)Nc1ccccc1 | U251 CNS | % | 93.7 |

Now turn to the next compound.
So what's the measured growth for this one? `CCCC(=O)CC(C)=O.CCCC(=O)CC(C)=O.[Cu]` 99.9

====

System: MDA-MB-435 melanoma
measurement description: NCI-60 one-dose screen, 48 h (100 = growth as untreated, 0 = no growth, -100 = all killed)
condition label: 10 µM unless noted
About 83,000 compounds went through this panel and 20% of them were active in at least one assay; those are over-represented in the sample as a whole. The source made the active and inactive calls. The calls were made as follows: active = growth percent below 10; inactive = the rest.
measurement kind: growth

| compound | assayed target | measurement kind | recorded measurement |
| --- | --- | --- | --- |
| COc1ccc(C2=NN(/C=C3\SC(=O)NC3=Nc3ccc(F)cc3)C(c3ccc(F)cc3)C2)cc1 (centres undefined) | MDA-MB-435 melanoma | growth | 106% (inactive) |
| O=C(NC1CCN(Cc2ccccc2)CC1)c1cc(C(=O)NC2CCN(Cc3ccccc3)CC2)cc(C(=O)NC2CCN(Cc3ccccc3)CC2)c1 | MDA-MB-435 melanoma | growth | 70.4% (inactive) |
| CN1C(=O)N(C)C2C1NN=c1s/c(=C\c3c[nH]c4ccccc34)c(=O)n12 (centres undefined) | MDA-MB-435 melanoma | growth | 102% (inactive) |
| CCCCCCn1c(=N)n(CC(O)COc2cccc(C)c2)c2ccccc21 (centres undefined) | MDA-MB-435 melanoma | growth | -77.3% (active) |
| COc1ccc(/C=C2\NC(=O)NC2=O)cc1O | MDA-MB-435 melanoma | growth | 94.7% (inactive) |
| COc1ccc(CN2CCCC(C(=O)c3ccc(C(F)(F)F)cc3)C2)c(O)c1 (centres undefined) | MDA-MB-435 melanoma | growth | -48.9% (active) |
| Cc1ccccc1CNC(=O)C1CN(c2ccc(Cl)cc2)N(c2ccc(Cl)cc2)C1=O (centres undefined) | MDA-MB-435 melanoma | growth | 35.9% (inactive) |
| COc1cccc(C2=NN3C(C2)c2ccccc2OC3c2ccc(/C=C3\SC(=O)NC3=O)cc2)c1 (centres undefined) | MDA-MB-435 melanoma | growth | 105% (inactive) |

Take each entry in turn and give its growth.
1. O=C(N=Nc1c(O)[nH]c2ccccc12)c1oc2ccccc2c1CN1CCN(c2ccccc2)CC1
2. COc1ccc(CSc2nnc(SCC(=O)Nc3ccc(Cl)cc3)s2)cc1
3. COC(=O)/C(=C\c1c(C)[nH]c2ccccc12)S(=O)(=O)c1ccccc1

["26.3% (inactive)", "67.2% (inactive)", "13.9% (inactive)"]

Take each entry in turn and give its growth.
1. COc1cc(C=C2C(=O)N(C)C(=O)N(C)C2=O)cc(CN2CCCCC2)c1O
2. O=c1c2cccc(F)c2sc2c(N3CCNCC3)nc3ccccc3c12

103% (inactive)
2.82% (active)

Take each entry in turn and give its growth.
1. Nc1ccc(-c2ccc(-c3ccccc3N)c3[nH]c4ccccc4c23)cc1
2. O=c1c(-c2nc3ccccc3[nH]2)cc2ccccc2n1Cc1cn(Cc2ccccc2Cl)nn1

["-58.9% (active)", "15.1% (inactive)"]

Take each entry in turn and give its growth.
1. O=C(CSc1nc2ccccc2c(=O)n1-c1ccccc1)Nc1ccc(C(=O)/C=C/c2ccc(Cl)cc2)cc1
2. COc1ccc(-c2cn3c(C(=O)Nc4ccccc4Cl)c(-c4ccccc4)c4c3n2CCCC4)cc1
3. COc1ccc(/C=C2\N=C(c3ccccc3)N(c3ccc(-c4nc5ccc(C)cc5s4)cc3)C2=O)cc1
4. O=C1/C=C/[C@@H](O)[C@@H]2C[C@@H](O)C[C@H]2/C=C/CCCCO1

["103% (inactive)", "80% (inactive)", "86.9% (inactive)", "23.5% (inactive)"]
